The reported measurements were obtained from ChEMBL document CHEMBL3430912.

biological target: Sterol 14-alpha demethylase (Trypanosoma cruzi (strain CL Brener), UniProt Q7Z1V1); experiment: GSK_TCAKS: pIC50 CYP51 from Trypanosoma cruzi.
Sequence (Q7Z1V1 whole entry): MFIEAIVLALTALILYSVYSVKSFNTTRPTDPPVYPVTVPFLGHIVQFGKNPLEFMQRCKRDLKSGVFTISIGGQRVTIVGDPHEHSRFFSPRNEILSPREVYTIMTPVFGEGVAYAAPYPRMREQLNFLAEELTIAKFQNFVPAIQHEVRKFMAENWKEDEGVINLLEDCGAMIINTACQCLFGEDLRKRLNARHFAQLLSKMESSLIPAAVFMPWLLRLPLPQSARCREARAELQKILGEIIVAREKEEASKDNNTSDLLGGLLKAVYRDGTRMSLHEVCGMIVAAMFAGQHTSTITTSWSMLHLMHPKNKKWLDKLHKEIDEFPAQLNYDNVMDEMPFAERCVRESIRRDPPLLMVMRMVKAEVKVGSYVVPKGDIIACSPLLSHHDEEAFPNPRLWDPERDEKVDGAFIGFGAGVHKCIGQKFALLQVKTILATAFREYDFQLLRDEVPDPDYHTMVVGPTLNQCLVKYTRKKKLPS
pIC50: −log10 of the molar value.
measurement_name: pIC50

molecule: COc1ccc(-c2ccc3nnc(-c4ccc(O)c(OC)c4)n3c2)cn1
measurement_name: pIC50
bound_type: <
obs_value: 4.00
--
molecule: N#Cc1cnc(Nc2cccc(CCN3CCOCC3)c2)nc1Nc1ccccc1C(N)=O
measurement_name: pIC50
bound_type: =
obs_value: 5.00
--
molecule: O=C(Nc1ccccc1)Nc1nc(-c2ccccn2)cs1
measurement_name: pIC50
bound_type: =
obs_value: 4.50
--
molecule: CCC(CC)C(=O)Nc1ccc(-c2nnc(-c3ccc(OC)cc3)o2)cc1
measurement_name: pIC50
bound_type: =
obs_value: 4.90
--
molecule: CN(C(=O)Nc1ccc2c(c1)CCN(C1CCC1)CC2)c1ccc(C#N)cc1
measurement_name: pIC50
bound_type: <
obs_value: 4.00
--
molecule: O=C(Nc1nc2ccccc2[nH]1)c1c(O)c2cccc3c2n(c1=O)CC3
measurement_name: pIC50
bound_type: <
obs_value: 4.00
--
molecule: Cc1ccc(Nc2nc(C3CCCN3Cc3cc[nH]n3)cs2)nc1 (configuration not stated)
measurement_name: pIC50
bound_type: =
obs_value: 5.20
--
molecule: O=C(CCCn1cnc([N+](=O)[O-])n1)Nc1cccc(Cl)c1
measurement_name: pIC50
bound_type: =
obs_value: 4.30
--
molecule: O=C(c1cc2cc(Cl)ccc2[nH]1)N1CCCCC1c1cccnc1 (configuration not stated)
measurement_name: pIC50
bound_type: =
obs_value: 7.20
--
molecule: COc1ccc(C2=NCC(CSc3nnc(-c4ccc5c(c4)OCO5)o3)S2)cc1 (configuration not stated)
measurement_name: pIC50
bound_type: =
obs_value: 5.00
--
molecule: C[C@@H](Oc1cc(-n2cnc3ccc(O[C@H]4CCNC4)cc32)sc1C(N)=O)c1ccccc1Cl
measurement_name: pIC50
bound_type: =
obs_value: 5.90
--
molecule: Cn1nc([N+](=O)[O-])nc1Oc1ccc(C(=O)c2ccccc2)cc1
measurement_name: pIC50
bound_type: <
obs_value: 4.00
--
molecule: O=C(Cn1cnc2c(-c3ccccc3)csc2c1=O)N1CCCCC1
measurement_name: pIC50
bound_type: =
obs_value: 4.40
--
molecule: CC(C)Oc1cccc(N2CCC(C(=O)N3CCCN(C(C)C)CC3)CC2)c1
measurement_name: pIC50
bound_type: <
obs_value: 4.00
--
molecule: CC1=C(C(=O)Nc2ccc(Cl)cc2)C(c2ccncc2)n2ncc(C(=O)Nc3ccccc3)c2N1 (configuration not stated)
measurement_name: pIC50
bound_type: =
obs_value: 6.90
--
molecule: COc1ccc(OC)c2c(=O)c(Cc3ccccc3)c(C)[nH]c12
measurement_name: pIC50
bound_type: <
obs_value: 4.00
--
molecule: Nc1ncnc2c1ncn2[C@@H]1O[C@H](CO)C[C@H]1O [CORDYCEPIN]
measurement_name: pIC50
bound_type: <
obs_value: 4.00
--
molecule: Cc1cn[nH]c1C1CCCN(Cc2nc3ccccc3n2C)C1 (configuration not stated)
measurement_name: pIC50
bound_type: =
obs_value: 5.90
--
molecule: Nc1nonc1-c1nc2cncc(C(=O)N3CC[C@H](N)C3)c2n1CC1CC1
measurement_name: pIC50
bound_type: =
obs_value: 4.90
--
molecule: CN(CCOc1ccc(Cl)cc1)Cc1nc(N)nc(N(C)C)n1
measurement_name: pIC50
bound_type: =
obs_value: 4.50
--
molecule: O=C(CN1CCN(c2ccccn2)CC1)Nc1cc(S(=O)(=O)N2CCCCCC2)ccc1Cl
measurement_name: pIC50
bound_type: =
obs_value: 5.50
--
molecule: Cc1cc(NC(=O)C2CC2)ccc1OC1CCN(Cc2ccco2)CC1
measurement_name: pIC50
bound_type: =
obs_value: 4.20
--
molecule: O=C(Nc1ccc(-c2nc3ccccc3c(=O)[nH]2)cc1)c1cccs1
measurement_name: pIC50
bound_type: <
obs_value: 4.00
--
molecule: O=C(Cn1cnc([N+](=O)[O-])n1)Nc1ccc(Cl)cc1C(=O)c1ccccc1
measurement_name: pIC50
bound_type: =
obs_value: 5.00
--
molecule: O=c1oc2ccccc2n1C1CCN(Cc2ccccc2-c2cccnc2)CC1
measurement_name: pIC50
bound_type: =
obs_value: 7.00
--
molecule: O=C(NCc1nnc2n1CCCCC2)c1csc(-c2ccccc2)n1
measurement_name: pIC50
bound_type: <
obs_value: 4.00
--
molecule: COc1ccc(Nc2nccc(N(C)c3n[nH]c4c(F)cccc34)n2)cc1S(C)(=O)=O
measurement_name: pIC50
bound_type: =
obs_value: 4.50
--
molecule: CN(Cc1nc2cccc(C(=O)N3CCN(Cc4ccccc4)CC3)c2[nH]1)C1CCCc2cccnc21 (configuration not stated)
measurement_name: pIC50
bound_type: =
obs_value: 4.40
--
molecule: O=[N+]([O-])c1ccc(C2=NCCNC(c3ccccc3)=C2)cc1.[O-][Cl+3]([O-])([O-])O
measurement_name: pIC50
bound_type: =
obs_value: 4.30
--
molecule: N#Cc1ccccc1S(=O)(=O)N1CCN(C(=O)CNC(=O)c2ccc3c(c2)OCO3)CC1
measurement_name: pIC50
bound_type: =
obs_value: 4.10
--
molecule: Cc1ccc(NC(=O)c2ccnc(N3CCCC3)c2)cc1-c1cc(C(N)=O)ccc1C
measurement_name: pIC50
bound_type: =
obs_value: 5.40
--
molecule: COc1ccc2ncc(=O)n(CCN3CCOC(CNCc4ccc(C(F)(F)F)cc4F)C3)c2n1 (configuration not stated)
measurement_name: pIC50
bound_type: =
obs_value: 5.00
--
molecule: Cc1nc2c(-c3ncn[nH]3)cc(NC(=O)Cc3ccccc3)cn2c1C
measurement_name: pIC50
bound_type: =
obs_value: 5.00
--
molecule: Cc1nn(-c2nc(N)nc(-c3ccccn3)n2)c(C)c1Cc1ccccc1
measurement_name: pIC50
bound_type: =
obs_value: 4.20
--
molecule: NS(=O)(=O)c1ccc(CNC(=O)c2ccc([N+](=O)[O-])s2)cc1
measurement_name: pIC50
bound_type: =
obs_value: 4.40
--
molecule: COc1cccc(S(=O)(=O)Nc2ccc3c(c2)CC(N2CCC(NC(=O)C4CC4)CC2)C3)c1 (configuration not stated)
measurement_name: pIC50
bound_type: =
obs_value: 4.20
--
molecule: CC(C)CC(=O)Nc1cc(C2CC2)nn1-c1nc2c(c(=O)[nH]1)CCCC2
measurement_name: pIC50
bound_type: <
obs_value: 4.00
--
molecule: C=CCn1nc([N+](=O)[O-])nc1Oc1ccc(Cl)cc1Cl
measurement_name: pIC50
bound_type: =
obs_value: 4.70
--
molecule: Cc1cc(C#N)c([N+](=O)[O-])cc1Br
measurement_name: pIC50
bound_type: =
obs_value: 5.10
--
molecule: Cc1ccc(NC(=O)c2ccnc(N3CCCC3)c2)cc1-c1ccsc1C(N)=O
measurement_name: pIC50
bound_type: =
obs_value: 5.90
--
molecule: COc1ncc(-c2ccc3nccc(-c4ccncc4)c3c2)cc1NS(C)(=O)=O
measurement_name: pIC50
bound_type: =
obs_value: 4.10
--
molecule: CNc1c(C(N)=O)c(-c2ccc3scnc3c2)nn1CC(F)(F)F
measurement_name: pIC50
bound_type: <
obs_value: 4.00
